- EXPERIMENTAL_PROTOCOL: Antiprion activity against PrPsc infected in dividing mouse ScN2a-cl3 cells assessed as reduction in prion load after 5 days by ELISA
- Type: cell-based
- STUDY_CONDITIONS: N2a-cl3, 120 h
Threshold check on EC50: strictly below 2000 nM is Met; on or above 2000 nM is Not met.

• COc1ccc(-c2csc(Nc3cccc4ccccc34)n2)cc1OC = Not met
• COc1ccc(-c2csc(Nc3cccc(C)n3)n2)cc1OC = Not met
• COc1ccc(-c2csc(Nc3ccc(C(F)(F)F)cn3)n2)cc1OC = Not met
• COc1ccc(NC(=O)c2csc(Nc3ccc(C)cn3)n2)cc1OC = Not met
• Cc1ccc(Nc2nc(-c3ccccc3)cs2)nc1 = Not met
• COc1ccc(-c2csc(Nc3ccc4ccccc4c3)n2)cc1OC = Met
• COc1ccc(-c2csc(Nc3ccc(C)cn3)n2)cc1OC = Met
• Cc1ccc(Nc2nc(-c3cc(-c4ccccc4)no3)cs2)nc1 = Met
• COc1ccc(-c2csc(N(C(C)=O)c3cc4ccccc4cn3)n2)cc1OC = Met
• CNc1nc(-c2ccc(OC)c(OC)c2)cs1 = Not met
• c1ccc(-c2cc(-c3csc(Nc4cc5ccccc5cn4)n3)on2)cc1 = Met
• c1ccc(-c2cc(-c3csc(Nc4ccncc4)n3)on2)cc1 = Not met
• COc1ccc(-c2csc(Nc3ncccn3)n2)cc1OC = Not met
• COc1ccc(-c2csc(Nc3ncccc3C)n2)cc1OC = Not met
• COc1ccc(-c2csc(N(C)c3cc4ccccc4cn3)n2)cc1OC = Met
• COc1ccc(-c2csc(NC(=O)c3cc4ccccc4cn3)n2)cc1OC = Not met
• c1ccc(-c2cc(-c3csc(Nc4ccccn4)n3)on2)cc1 = Met
• COc1ccc(-c2csc(Nc3ccc(C)cn3)n2)cc1 = Not met
• Cc1cccc(Nc2nc(-c3cc(-c4ccccc4)no3)cs2)n1 = Met
• Cc1ccc(Nc2nc(-c3c(-c4ccccc4)noc3C)cs2)nc1 = Not met
• Cc1ccc(Nc2nc(-c3ccncc3)cs2)nc1 = Met
• COc1ccc(-c2csc(C(=O)Nc3cc4ccccc4cn3)n2)cc1OC = Not met
• FC(F)(F)Oc1ccc(-c2csc(Nc3cc4ccccc4cn3)n2)cc1 = Not met
• FC(F)(F)c1csc(Nc2cc3ccccc3cn2)n1 = Not met
• Cc1ccc(Nc2nc3c(s2)Cc2ccccc2-3)nc1 = Not met
• Cc1ccc(Nc2nc(-c3ccccn3)cs2)nc1 = Met
• COc1cc2c(cc1OC)-c1nc(Nc3ccc(C)cn3)sc1C2 = Not met
• Cc1ccc(Nc2nc(C)cs2)nc1 = Not met
• COc1ccccc1-c1csc(Nc2ccc(C)cn2)n1 = Not met
• COc1ccnc(Nc2nc(-c3cc(-c4ccccc4)no3)cs2)c1 = Met
• Cc1ccnc(Nc2nc(-c3cc(-c4ccccc4)no3)cs2)c1 = Met
• COc1ccc(Nc2nc(-c3cc(-c4ccccc4)no3)cs2)nc1 = Met
• COc1ccc(-c2csc(Nc3cc4ccccc4cn3)n2)cc1 = Met
• Cc1csc(Nc2cc3ccccc3cn2)n1 = Not met
• c1ccc(-c2csc(Nc3cc4ccccc4cn3)n2)cc1 = Not met
• Cc1ccc(Nc2nc(-c3ccc(-c4ccccn4)s3)cs2)nc1 = Met
